From: PubChem BioAssay (EPA / NIEHS)

- Read-out: Interferon-gamma inducible Protein 10 (IP10), CXCL10 (gene 3627)
- assay: BSK_BE3C_IP10: BioMAP Diversity Plus: BE3C Assay for Interferon-gamma inducible Protein 10 (IP10) Biomarker Activity (AID 2283034)
- assay-setup: primary human bronchial epithelial cells; actives raise or lower the signal
The source made the active and inactive calls. How the source made its calls: active means hit-call score of the fitted dose curve at least 0.9, where 1 is the maximum; inactive means score below 0.9.
Hi there, use one of these labels in your reply, thanks! true = active, false = inactive

INPUT: Assay result, entry `CCCCOC(=O)[C@@H](C)Oc1ccc(Oc2ccc(C(F)(F)F)cn2)cc1` — outcome?
OUTPUT: false

INPUT: Assay result, entry `c1ccc2[nH]c(-c3cscn3)nc2c1` — outcome?
OUTPUT: false

INPUT: Assay result, entry `CCNc1nc(N)nc(Cl)n1` — outcome?
OUTPUT: false

INPUT: Assay result, entry `O=C(O)C1(C(=O)Nc2ccc(Cl)cc2Cl)CC1` — outcome?
OUTPUT: true

INPUT: Assay result, entry `O=C(c1ccc(O)cc1O)c1ccc(O)cc1O` — outcome?
OUTPUT: true

INPUT: Assay result, entry `CCOC(=O)[C@H](C)Oc1ccc(Oc2nc3ccc(Cl)cc3o2)cc1` — outcome?
OUTPUT: false

INPUT: Assay result, entry `COC(=O)c1ccc(CNS(C)(=O)=O)cc1S(=O)(=O)NC(=O)Nc1nc(OC)cc(OC)n1` — outcome?
OUTPUT: false

INPUT: Assay result, entry `CCN(CC)C(=O)c1cccc(C)c1` — outcome?
OUTPUT: false

INPUT: Assay result, entry `CCOC(=O)COc1cc(-n2ncc(C(F)(F)F)c(C)c2=O)c(F)cc1Cl` — outcome?
OUTPUT: false

INPUT: Assay result, entry `C#C[C@]1(O)CC[C@H]2[C@@H]3CCC4=CC(=O)CC[C@@H]4[C@H]3CC[C@@]21CC` — outcome?
OUTPUT: false

INPUT: Assay result, entry `O=C(c1ccccc1)C1CCCCC1` — outcome?
OUTPUT: false

INPUT: Assay result, entry CCCCC(CC)CN1C(=O)C2C3C=CC(C3)C2C1=O (centres undefined) — outcome?
OUTPUT: true

INPUT: Assay result, entry CCCCCCC(C)OC(=O)COc1nc(F)c(Cl)c(N)c1Cl (centres undefined) — outcome?
OUTPUT: false

INPUT: Assay result, entry `CSC(=O)c1cccc2nnsc12` — outcome?
OUTPUT: false

INPUT: Assay result, entry `c1ccc(Nc2ccccc2)cc1` — outcome?
OUTPUT: false

INPUT: Assay result, entry `COC(=O)c1ccccc1S(=O)(=O)NC(=O)Nc1nc(OC(F)F)cc(OC(F)F)n1` — outcome?
OUTPUT: false

INPUT: Assay result, entry CCCCC(CC)COC(=O)c1ccccc1C(=O)O (centres undefined) — outcome?
OUTPUT: false

INPUT: Assay result, entry `CCN(Cc1c(F)cccc1Cl)c1c([N+](=O)[O-])cc(C(F)(F)F)cc1[N+](=O)[O-]` — outcome?
OUTPUT: false

INPUT: Assay result, entry `CC(C)(C)[C@@H](O)[C@@H](Cc1ccc(Cl)cc1)n1cncn1` — outcome?
OUTPUT: false

* * *

- assay: ACEA_AR_antagonist_AUC_viability: ACEA Biosciences xCELLigence Real-Time Cell Analysis on Androgen Receptor Antagonism for Viability (AID 2283776);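 further: 22Rv1 human prostate cancer cells growing on impedance electrode plates; area under impedance growth curve at 80 h after dosing as viability; hits lower the growth signal relative to DMSO meaning cytotoxicity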
Inconclusive results are not listed. Calls of active or inactive are those of the source. The calls were made as follows: active = hit-call score of the fitted dose curve at least 0.9, where 1 is the maximum; inconclusive = response in the unintended direction; inactive = score below 0.9.
measured-metric: AC50

compound	measured-metric	obs-value
CC(C)CCCCCCc1ccc(O)cc1	AC50	7.91 µM (active)
CCOC(=O)C(C)Oc1ccc(Oc2cnc3cc(Cl)ccc3n2)cc1 (stereo not drawn)	AC50	inactive
CCOC(=O)COc1cc(-n2ncc(C(F)(F)F)c(C)c2=O)c(F)cc1Cl	AC50	inactive
